Would you kindly list IC50 at 24 h for each of these compounds?
method-summary: Mammalian cytotoxicity, CCK-8 assay
Assay type: cell-based
test-conditions: human

What the record says about C/C=C1\NC(=O)C(N(C)C)C(C)SC[C@@H](C(=O)N[C@H](CC)C(=O)N[C@H](C(=O)N[C@@H](C)C(=O)N[C@H](C)C(=O)N[C@@H](Cc2ccccc2)C(=O)N[C@@H](C)C(=O)NC2C(=O)NCC(=O)N[C@@H](Cc3ccc(O)cc3)C(=O)N[C@@H](Cc3ccccc3)C(=O)N[C@H](C)C(=O)N/C=C\SC2C)C(C)C)NC(=O)[C@@H]2CCCN2C(=O)[C@H](C(C)C)NC1=O (some centres unmarked) [Massatide A (1), massatide A] : IC50 at 24 h is 136 µg/mL

What the record says about C/C=C1\NC(=O)C(N(C)C)C(C)SC[C@@H](C(=O)N/C(=C\C)C(=O)N[C@H](C(=O)N[C@@H](C)C(=O)N[C@H](C)C(=O)N[C@@H](Cc2ccccc2)C(=O)N[C@@H](C)C(=O)NC2C(=O)NCC(=O)N[C@@H](Cc3ccc(O)cc3)C(=O)N[C@@H](Cc3ccccc3)C(=O)N[C@H](C)C(=O)N/C=C\SC2C)C(C)C)NC(=O)[C@@H]2CCCN2C(=O)[C@H](C(C)C)NC1=O (some centres unmarked) [Massatide B (1a), massatide B] : IC50 at 24 h is > 200 µg/mL
